These data points were gathered from paper PMC9861386.

Hi there, I'd appreciate the recorded PI T24 for every entry that follows.
system: T24 bladder cancer cells; assay: MTT cell viability, 72 h, dark or 458 nm irradiation; assay type: cell-based, human; conditions: GI50 non-irradiated / GI50 irradiated

For CSc1ccc(-[n+]2ccn3[c]2[Ir-3]24([c]5ccccc5-c5cccc[n+]52)([c]2ccccc2-c2cccc[n+]24)[c]2n(cc[n+]2-c2ccc(SC)cc2)C3)cc1.F[P-](F)(F)(F)(F)F the compound record lists PI T24 as 3.0

For CC(C)[n+]1ccn2[c]1[Ir-3]13([c]4ccccc4-c4cccc[n+]41)([c]1ccccc1-c1cccc[n+]13)[c]1n(cc[n+]1C(C)C)C2.F[P-](F)(F)(F)(F)F the compound record lists PI T24 as 3.5

For c1cc[c]2c(c1)-c1cccc[n+]1[Ir-3]213([Cl+][Ir-3]24([Cl+]1)([c]1ccccc1-c1cccc[n+]12)[c]1ccccc1-c1cccc[n+]14)[c]1ccccc1-c1cccc[n+]13 [[IrCl(ppy)2]2, reference compound] the compound record lists PI T24 as 1.2

For CC(C)C[n+]1ccn2[c]1[Ir-3]13([c]4ccccc4-c4cccc[n+]41)([c]1ccccc1-c1cccc[n+]13)[c]1n(cc[n+]1CC(C)C)C2.F[P-](F)(F)(F)(F)F the compound record lists PI T24 as 2.8

For F[P-](F)(F)(F)(F)F.c1ccc(C[n+]2ccn3[c]2[Ir-3]24([c]5ccccc5-c5cccc[n+]52)([c]2ccccc2-c2cccc[n+]24)[c]2n(cc[n+]2Cc2ccccc2)C3)cc1 the compound record lists PI T24 as 3.9

====

system: MCF7/FasR breast cancer cells; assay: MTT cell viability, 72 h, dark or 458 nm irradiation; assay type: cell-based, human; settings: dark; GI50 NIH-3T3 / GI50 MCF7
Hi there, I'd appreciate the recorded SI vs NIH, MCF7 Dark for every entry that follows.
# print the numeric value only

For CC(C)C[n+]1ccn2[c]1[Ir-3]13([c]4ccccc4-c4cccc[n+]41)([c]1ccccc1-c1cccc[n+]13)[c]1n(cc[n+]1CC(C)C)C2.F[P-](F)(F)(F)(F)F [Complex 4b] the compound record lists SI vs NIH, MCF7 Dark as 9.2

For CC(C)[n+]1ccn2[c]1[Ir-3]13([c]4ccccc4-c4cccc[n+]41)([c]1ccccc1-c1cccc[n+]13)[c]1n(cc[n+]1C(C)C)C2.F[P-](F)(F)(F)(F)F [Complex 4a] the compound record lists SI vs NIH, MCF7 Dark as 17.2

For F[P-](F)(F)(F)(F)F.c1ccc(C[n+]2ccn3[c]2[Ir-3]24([c]5ccccc5-c5cccc[n+]52)([c]2ccccc2-c2cccc[n+]24)[c]2n(cc[n+]2Cc2ccccc2)C3)cc1 [Complex 4c] the compound record lists SI vs NIH, MCF7 Dark as 11.0

For CSc1ccc(-[n+]2ccn3[c]2[Ir-3]24([c]5ccccc5-c5cccc[n+]52)([c]2ccccc2-c2cccc[n+]24)[c]2n(cc[n+]2-c2ccc(SC)cc2)C3)cc1.F[P-](F)(F)(F)(F)F [Complex 4d] the compound record lists SI vs NIH, MCF7 Dark as 6.4

====

test system: HeLa cervix cancer cells; assay: MTT cell viability, 72 h, dark or 458 nm irradiation; format: cell-based, human; details: blue light; GI50 NIH-3T3 / GI50 HeLa
Hi there, I'd appreciate the recorded SI vs NIH, HeLa Blue for every entry that follows.
# print the numeric value only

For CSc1ccc(-[n+]2ccn3[c]2[Ir-3]24([c]5ccccc5-c5cccc[n+]52)([c]2ccccc2-c2cccc[n+]24)[c]2n(cc[n+]2-c2ccc(SC)cc2)C3)cc1.F[P-](F)(F)(F)(F)F [Complex 4d] the compound record lists SI vs NIH, HeLa Blue as 3.4

For CC(C)C[n+]1ccn2[c]1[Ir-3]13([c]4ccccc4-c4cccc[n+]41)([c]1ccccc1-c1cccc[n+]13)[c]1n(cc[n+]1CC(C)C)C2.F[P-](F)(F)(F)(F)F [Complex 4b] the compound record lists SI vs NIH, HeLa Blue as 5.2

For CC(C)[n+]1ccn2[c]1[Ir-3]13([c]4ccccc4-c4cccc[n+]41)([c]1ccccc1-c1cccc[n+]13)[c]1n(cc[n+]1C(C)C)C2.F[P-](F)(F)(F)(F)F [Complex 4a] the compound record lists SI vs NIH, HeLa Blue as 5.3

For F[P-](F)(F)(F)(F)F.c1ccc(C[n+]2ccn3[c]2[Ir-3]24([c]5ccccc5-c5cccc[n+]52)([c]2ccccc2-c2cccc[n+]24)[c]2n(cc[n+]2Cc2ccccc2)C3)cc1 [Complex 4c] the compound record lists SI vs NIH, HeLa Blue as 9.7
